The following molecules are shown together with reported MIC values.
system: colistin resistant MCR (+) E. Coli strains; assay: MIC, broth microdilution, compound alone; assay type: cell-based; conditions: strain 7023444207, MCR (+); compound alone
Answer format: numeric, µg/mL implied, no suffix.

Past entries and their recorded results:
MOLECULE	QUANTITY_UNIT	MIC
CC[N+](CC)(CC)CCCCOc1ccc(/C=C/C(=O)c2ccc(OCCCC[N+](CC)(CC)CC)c(CC=C(C)C)c2O)cc1	µg/mL	12.5
CC(C)=CCc1c(OCCCCN(C)CCCN(C)C)ccc(C(=O)/C=C/c2ccc(OCCCCN(C)CCCN(C)C)cc2)c1O	µg/mL	6.25

// lookup MIC for CC1(C)C=Cc2c(ccc3c2OCC(c2ccc(OCCCC[n+]4ccccc4)cc2OCCCC[n+]2ccccc2)C3)O1 (stereo not drawn) 50
